Below are pIC50 measurements against human PDE10A2 (Homo sapiens (Human)) drawn from the literature.
pIC50: −log10 of the molar value.
Readout Kind: pIC50

Solved cases (2 shown):
>  <Smi>
Cn1c(=O)n([C@H]2C[C@H](Nc3nc4cc(F)ccc4s3)C2)c2ncc(F)cc21

>  <pIC50>
9.05

$$$$
>  <Smi>
Cc1ncc(C)n2nc(CCc3nc(N4CCCC4=O)cn3CC3CC3)nc12

>  <pIC50>
7.77

$$$$

I = Cn1cncc1Cn1nc(-c2ccccn2)cc1NC(=O)c1nc(C2CC2)ccc1Nc1cncnc1
II = Cn1ncc(C(=O)Nc2ccccc2)c1C(=O)Nc1ccn2cc(-c3ccccc3)nc2n1
III = CCCn1cc(-c2cccs2)nc1CCc1cn2c(C)cc(C)nc2n1
IV = CCCNC(=O)c1[nH]nnc1C(=O)Nc1ccn2cc(-c3ccccc3)nc2n1
QUERY: // sort entries: pIC50, high to low Put the labels in the requested order and list them out.
RESULT: I, III, II, IV
(I: 8.70, III: 8.47, II: 7.28, IV: 6.44)

---

pIC50: −log10 of the molar value.
Literature survey of pIC50 (system: UniProt Q9Y233).
Readout Kind: pIC50

>  <Smi>
COCCN(C)C(=O)c1cnn(C)c1C(=O)Nc1ccn2cc(-c3cccc(OC)c3)nc2n1

>  <pIC50>
7.66

$$$$
>  <Smi>
Cc1ncc(C)n2nc(CCc3nc(N4CC(C)C4)nn3C)nc12

>  <pIC50>
6.97

$$$$

1 = Cc1ncc(C)n2nc(CCc3nc(N4CC[C@@H](C)C4)nn3C)nc12
2 = CCn1ncc(NC(=O)c2nc(C3CC3)cnc2Nc2cncnc2)c1C(=O)NCC(C)(C)O
QUERY: Consider 1 and 2 . Which of these has its pIC50 at a higher number? Please respond with the label that marks your chosen entry.
RESULT: 1

---

Literature-derived pIC50 for human PDE10A2 (Homo sapiens (Human)) follows.
pIC50: −log10 of the molar value.
Readout Kind: pIC50

a = CN(C)C(=O)c1cnn(C)c1C(=O)Nc1ccn2cc(-c3cccc(OCCF)c3)nc2n1
b = CC1(C)CCCC(c2nnc3c(N)ncnn23)C1 (single isomer, unassigned)
c = O=c1[nH]c2cccnc2n1[C@H]1C[C@H](Nc2nc3c(F)cccc3s2)C1
d = Cn1cc(-c2ccncc2)c(-c2ccc(OCc3nc4cnccc4n3C)cc2)n1
QUERY: Task for the reader: place the molecules above in descending order according to recorded pIC50. Answer with the labels in sequence, matching the requested order.
RESULT: c, a, d, b
(c: 8.32, a: 7.55, d: 6.88, b: 5.54)

---

pIC50: −log10 of the molar value.
pIC50 values for human PDE10A2 (Homo sapiens (Human), UniProt Q9Y233) compiled from several publications are listed below.
Readout Kind: pIC50

Worked examples follow.
>  <Smi>
CCN(CCO)C(=O)c1ncccc1NC(=O)c1nc(C2CC2)cnc1Nc1cncnc1

>  <pIC50>
7.27

$$$$
>  <Smi>
O=c1n(C2CC2)c2nccnc2n1[C@H]1C[C@H](Nc2nc3cccnc3s2)C1

>  <pIC50>
8.65

$$$$
>  <Smi>
O=C(Nc1cc(-c2ccccn2)nn1CCN1CCOCC1)c1nc(C2CC2)ccc1Nc1cncnc1

>  <pIC50>
8.70

$$$$
>  <Smi>
COc1cccnc1N[C@H]1C[C@H](N2C(=O)C(C)(C)c3cccnc32)C1

>  <pIC50>
8.60

$$$$
>  <Smi>
CN(C)C(=O)c1cnn(C)c1C(=O)Nc1ccn2cc(-c3cccc(OCF)c3)nc2n1

>  <pIC50>
8.24

$$$$
>  <Smi>
CCN(C)C(=O)c1cnn(C)c1C(=O)Nc1ccn2cc(-c3cccc(OCF)c3)nc2n1

>  <pIC50>
8.28

$$$$
>  <Smi>
COc1ccc(C)n2nc(CSc3nc(-c4ccccc4)n[nH]3)nc12

>  <pIC50>
7.28

$$$$
>  <Smi>
c1ccc2oc(N[C@H]3C[C@H](n4c(C5CC5)nc5cccnc54)C3)nc2c1

>  <pIC50>
7.70

$$$$
>  <Smi>
Cc1ncc(C)n2nc(CCc3nc(-c4ccccn4)nn3C)nc12

>  <pIC50>
7.41

$$$$

A = Cc1cnc(-c2nc(CCc3nc4c(C)ncc(C)n4n3)n(C)n2)s1
B = O=c1[nH]c2cccnc2n1[C@H]1C[C@@H](Nc2nc3ccccc3s2)C1
C = Cc1cccc2nc(CCc3nc(-c4ccsc4)c[nH]3)nn12
D = O=C(Nc1cc(-c2ccccn2)nn1C1CCCCC1)c1nc(C2CC2)ccc1Nc1cncnc1
QUERY: Please give the order of these compounds when sorted by pIC50, largest value leading. # the answer lists labels in the order requested
RESULT: D, C, B, A

---

Please find below IC50 data on UniProt:Q9Y233 compiled from the literature.
Readout Kind: IC50 (nM)

Here are 3 molecules together with their reported answers.
>  <Smi>
COc1cccn2nc(CCc3nc(-c4ccc(C)o4)c[nH]3)nc12

>  <IC50 [nM]>
120

$$$$
>  <Smi>
CC(C)n1nc(-c2ccccn2)cc1NC(=O)c1nc(C2CC2)ccc1Nc1cncnc1

>  <IC50 [nM]>
3

$$$$
>  <Smi>
Cn1c(=O)n([C@H]2C[C@@H](Nc3nc4ccccc4s3)C2)c2nccnc21

>  <IC50 [nM]>
16.9

$$$$

1 = Cc1nc2ccc(C3CC3)nc2n2c(-c3cc(CC(C)(C)O)ccc3Cl)nnc12
2 = Cn1nc(N2CCCC2)nc1CCc1nc2c(Cl)cc(C(F)(F)F)cn2n1
QUERY: Could you please tell me which of these two has the higher IC50: 1 or 2 ? Use the label to indicate which entry you chose.
RESULT: 1

---

For reference, the following IC50 results for human PDE10A2 (Homo sapiens (Human)) were taken from various sources.

In the examples that follow, each entry is paired with its recorded IC50.
>  <Molecule>
COc1cn(-c2ccc3c(c2F)C(C)(C)C(=O)N3C)nc(-c2ccnn2-c2ccccc2)c1=O

>  <Data Value>
≤ 10 nM

$$$$
>  <Molecule>
[2H]C1([2H])OC([2H])([2H])C([2H])([2H])N(c2ccnc3c2C(=O)N(CCc2ccc4ccccc4n2)C3)C1([2H])[2H]

>  <Data Value>
< 100 nM

$$$$
>  <Molecule>
CCN(C)c1nc(CCc2nc3c(C)ncc(C)n3n2)n(C)n1

>  <Data Value>
103 nM

$$$$
>  <Molecule>
O=C1c2c(-c3ccsc3)ccnc2CN1CCc1ccc2ccccc2n1

>  <Data Value>
< 100 nM

$$$$
>  <Molecule>
O=C1c2c(-c3ccncc3)ccnc2CN1CCc1nc2ccccc2o1

>  <Data Value>
200 to 500 nM

$$$$
>  <Molecule>
COc1ccccc1-c1nc2n(n1)CCC(NC(=O)c1c(-c3nc(C(F)F)cs3)cnn1C)C2 (centres unmarked)

>  <Data Value>
< 5 nM

$$$$
>  <Molecule>
Cc1csc(N[C@H]2C[C@H](N3C(=O)C(C)(C)c4cccnc43)C2)n1

>  <Data Value>
109 nM

$$$$

With those in mind, consider the next molecule.
QUERY: Form field - read-out: IC50; system: human PDE10A2 (Homo sapiens (Human)); submitted item: `O=C1c2c(cccc2NCc2cccnc2)CN1CCc1ccc2ccccc2n1`
RESULT: 200 to 500 nM

---

Recorded pIC50 for molecules tested on human PDE10A2 (Homo sapiens (Human)), drawn from a number of studies.
pIC50: −log10 of the molar value.
Readout Kind: pIC50

Use these answered entries as a reference point.
>  <Molecule>
Cc1ccc(CCC(C)(C)O)cc1-c1nnc2c(C)nc3cccnc3n12

>  <Target Of Assay>
human PDE10A2 (Homo sapiens (Human))

>  <Data Value>
5.41

$$$$
>  <Molecule>
COCCn1cc(-c2cncs2)nc1CCc1cn2c(C)cc(C)nc2n1

>  <Target Of Assay>
human PDE10A2 (Homo sapiens (Human))

>  <Data Value>
6.68

$$$$
>  <Molecule>
CC1(C)C(=O)N(C2CCN(c3ncc4cc(F)ccc4n3)CC2)c2nccnc21

>  <Target Of Assay>
human PDE10A2 (Homo sapiens (Human))

>  <Data Value>
8.46

$$$$
>  <Molecule>
CC1CCC(C)N(c2nnc3c(N)ncc(C#N)n23)C1 (single isomer, unassigned)

>  <Target Of Assay>
human PDE10A2 (Homo sapiens (Human))

>  <Data Value>
5.49

$$$$
>  <Molecule>
CC1(C)C(=O)N(C2CCN(c3nc4ccc(C(F)(F)F)cc4s3)CC2)c2nccnc21

>  <Target Of Assay>
human PDE10A2 (Homo sapiens (Human))

>  <Data Value>
7.16

$$$$

I = CC1(C)C(=O)N(C2CCN(C(=O)c3ccccn3)CC2)c2ncccc21
II = CC(C)Cc1ncc(Nc2cncnc2)c(C(=O)Nc2cc(-c3ccccn3)nn2C)n1
QUERY: Pick one: I or II . Which has the bigger pIC50 number? // output: label of the selected item
RESULT: I
